All figures here come from paper PMC8050391.

Biological target: 3-mercaptopropionic acid dioxygenase (Av3MDO) (Azotobacter vinelandii)
Sequence (C1DN94 entry or part of it): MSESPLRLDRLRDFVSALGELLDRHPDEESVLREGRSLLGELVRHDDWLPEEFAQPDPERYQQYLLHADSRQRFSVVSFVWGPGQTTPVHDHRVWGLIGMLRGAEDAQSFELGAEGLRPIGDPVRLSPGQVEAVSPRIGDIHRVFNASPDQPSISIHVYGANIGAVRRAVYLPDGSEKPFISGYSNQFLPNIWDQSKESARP
ASSAY METRIC: Ki (µM)

COMPOUND	ASSAY METRIC	NUMBER
O=C(O)CCO [3HPA, 3-hydroxypropionic acid]	Ki	280
